The measured values listed here are drawn from the supplement of paper PMC10126150.

Listed sequences paired with reported switch fluorescence ratio
Test system: ATP;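 further: ATP exposure 15 min at 22 °C before imaging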
Test: switch fluorescence ratio, 500 uM ATP over buffer (Cy3 cluster intensity, sum of 5 cycles each) (fold (ratio)); higher = stronger signal-on switching upon ATP binding; sequences stand for … in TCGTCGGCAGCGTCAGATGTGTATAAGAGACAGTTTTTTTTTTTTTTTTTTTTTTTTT…TC
Conditions: aptamer strand: ATP DNA aptamer (quencher-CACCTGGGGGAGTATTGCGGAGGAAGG + anchor), 100 nM annealed; ATP concentration: 500 uM
Just the number, please.

Answered examples (5):
CTCAGGCG ... 1.17
TGTTTGGATG ... 0.973
ACTTCTGGTG ... 1.23
TTAAGCCGGT ... 1.04
AATCGGCCGG ... 1.01

*Q* What switch fluorescence ratio value was documented for this sequence, AGAAATAATC ?
*A* 1.01

*Q* What switch fluorescence ratio value was documented for this sequence, ATTGAAGGAG ?
*A* 0.994

*Q* What switch fluorescence ratio value was documented for this sequence, GGTTTGCTAG ?
*A* 1.04

*Q* What switch fluorescence ratio value was documented for this sequence, GTTACGTTAT ?
*A* 1.13

====

System: ATP;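 further: ATP exposure 15 min at 22 °C before imaging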
Assay: switch fluorescence ratio, 500 uM ATP over buffer (Cy3 cluster intensity, sum of 5 cycles each) (fold (ratio)); higher = stronger signal-on switching upon ATP binding; sequences stand for … in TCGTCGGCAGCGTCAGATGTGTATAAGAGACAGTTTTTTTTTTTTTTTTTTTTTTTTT…TC
Settings: aptamer strand: ATP DNA aptamer (quencher-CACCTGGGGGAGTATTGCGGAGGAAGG + anchor), 100 nM annealed; ATP concentration: 500 uM
Listed sequences paired with reported switch fluorescence ratio
Just the number, please.

*Q* What switch fluorescence ratio value was documented for this sequence, TTTTCGTATT ?
*A* 0.988

*Q* What switch fluorescence ratio value was documented for this sequence, ATTCGTGGG ?
*A* 1.01

====

Tested on: ATP;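 further: ATP exposure 15 min at 22 °C before imaging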
Experiment: switch fluorescence ratio, 500 uM ATP over buffer (Cy3 cluster intensity, sum of 5 cycles each) (fold (ratio)); higher = stronger signal-on switching upon ATP binding; sequences stand for … in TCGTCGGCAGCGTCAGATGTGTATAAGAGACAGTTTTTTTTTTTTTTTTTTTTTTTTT…TC
Details: aptamer strand: ATP DNA aptamer (quencher-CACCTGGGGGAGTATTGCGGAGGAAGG + anchor), 100 nM annealed; ATP concentration: 500 uM
Property Label: switch fluorescence ratio
Just the number, please.

Answered examples (6):
TGGAGTAGGG ... 0.987
TTCCATGTTT ... 1.06
TGTTTGTGCG ... 0.963
AGGGGGCGCT ... 1.01
CCTTGCGGGG ... 1.06
GGGGGTAATT ... 1.1

*Q* What switch fluorescence ratio value was documented for this sequence, AATGGGGGGT ?
*A* 1.02

*Q* What switch fluorescence ratio value was documented for this sequence, GCAAGAGATG ?
*A* 1.01

*Q* What switch fluorescence ratio value was documented for this sequence, AAGACGGGCT ?
*A* 1.01

*Q* What switch fluorescence ratio value was documented for this sequence, TGCCTAAGTA ?
*A* 1.02

*Q* What switch fluorescence ratio value was documented for this sequence, TATTTTTTGG ?
*A* 1.02

*Q* What switch fluorescence ratio value was documented for this sequence, GGTTTTGTAA ?
*A* 0.982

*Q* What switch fluorescence ratio value was documented for this sequence, ATAATGAGGT ?
*A* 1.01

*Q* What switch fluorescence ratio value was documented for this sequence, TGATGGGCGG ?
*A* 0.996

*Q* What switch fluorescence ratio value was documented for this sequence, TGTTAAACGG ?
*A* 1.01

*Q* What switch fluorescence ratio value was documented for this sequence, TTTGCTATAG ?
*A* 1.23

*Q* What switch fluorescence ratio value was documented for this sequence, GCCGTTACTG ?
*A* 1.05

*Q* What switch fluorescence ratio value was documented for this sequence, TTTAATTTGT ?
*A* 1

*Q* What switch fluorescence ratio value was documented for this sequence, AGTGTAGGGG ?
*A* 1.02

*Q* What switch fluorescence ratio value was documented for this sequence, CTTTATGTCG ?
*A* 1.02
